Test system: Mus musculus
EXPERIMENT: Antidepressant activity in overnight fasted Mus musculus (mouse) assessed as decrease in immobility time at 30 mg/kg, ip administered 60 min prior to testing measured for 5 min by tail suspension test (reference value: 169.8 +/- 13 secs)
Format: functional
CONDITION_INFO: route intraperitoneal
ENDPOINT_LABEL: Time (s)
Unit s implied. Number only.

Sample COc1ccc(-c2nc(SCCN(C)C)n[nH]2)cc1 — what was its Time?
111

Query CN(C)CCSc1n[nH]c(-c2ccc(Cl)cc2)n1 next
102.2

Query CCN(CC)CCSc1n[nH]c(-c2ccc(OC)cc2)n1 next
118.5

Query Cc1ccc(-c2nc(SCCN(C3CCCCC3)C3CCCCC3)n[nH]2)cc1 next
151.3

Query CCN(CC)CCSc1n[nH]c(-c2ccccc2)n1 next
120.7

Query CN(C)CCSc1n[nH]c(-c2ccccc2O)n1 next
150.8

Query c1ccc(-c2nc(SCCN(C3CCCCC3)C3CCCCC3)n[nH]2)cc1 next
109.7

Query Oc1ccc(-c2nc(SCCN(C3CCCCC3)C3CCCCC3)n[nH]2)cc1 next
126.2

Query CCN(CC)CCSc1n[nH]c(-c2ccc(Cl)cc2)n1 next
115

* * *

System: Mus musculus
EXPERIMENT: Antidepressant activity in overnight fasted Mus musculus (mouse) assessed as decrease in immobility time at 100 mg/kg, ip administered 60 min prior to testing measured for 5 min by tail suspension test (reference value: 169.8 +/- 13 secs)
Assay type: functional
CONDITION_INFO: route intraperitoneal
I'd be grateful if you could share measured Time for these entries.

Sample Clc1ccc(-c2nc(SCCN(C3CCCCC3)C3CCCCC3)n[nH]2)c(Cl)c1 — what was its Time?
90.5 s

Query Cc1ccc(-c2nc(SCCN(C3CCCCC3)C3CCCCC3)n[nH]2)cc1 next
150 s

Query CN(C)CCSc1n[nH]c(-c2ccc(Cl)cc2Cl)n1 next
96.2 s

Query Clc1ccc(-c2nc(SCCN(C3CCCCC3)C3CCCCC3)n[nH]2)cc1 next
89.2 s

Query c1ccc(-c2nc(SCCN(C3CCCCC3)C3CCCCC3)n[nH]2)cc1 next
101.7 s

Query Oc1ccccc1-c1nc(SCCN(C2CCCCC2)C2CCCCC2)n[nH]1 next
150 s

Query CCN(CC)CCSc1n[nH]c(-c2ccc(C)cc2)n1 next
151.2 s

Query CCN(CC)CCSc1n[nH]c(-c2ccc(OC)cc2)n1 next
103.8 s

Query COc1ccc(-c2nc(SCCN(C)C)n[nH]2)cc1 next
103.8 s

* * *

I'd be grateful if you could share measured Time for these entries.
System: Mus musculus
EXPERIMENT: Antidepressant activity in overnight fasted Mus musculus (mouse) assessed as decrease in immobility time at 30 mg/kg, ip administered 60 min prior to testing measured for 5 min by tail suspension test (reference value: 169.8 +/- 13 secs)
Assay type: functional
CONDITION_INFO: route intraperitoneal
Unit s implied. Number only.

Sample Clc1ccc(-c2nc(SCCN(C3CCCCC3)C3CCCCC3)n[nH]2)c(Cl)c1 — what was its Time?
94.5

Query CCN(CC)CCSc1n[nH]c(-c2ccccc2O)n1 next
163.5

Query Clc1ccc(-c2nc(SCCN(C3CCCCC3)C3CCCCC3)n[nH]2)cc1 next
94.8

Query Oc1ccccc1-c1nc(SCCN(C2CCCCC2)C2CCCCC2)n[nH]1 next
149.3

Query CCN(CC)CCSc1n[nH]c(-c2ccc(O)cc2)n1 next
167.3

Query CCN(CC)CCSc1n[nH]c(-c2ccc(C)cc2)n1 next
168.2

The reported numbers originate from ChEMBL document CHEMBL3045954.
